// provenance: paper PMC12416549

Target: T1, TNFR1 (Homo sapiens, UniProt P19438)
T1 chain: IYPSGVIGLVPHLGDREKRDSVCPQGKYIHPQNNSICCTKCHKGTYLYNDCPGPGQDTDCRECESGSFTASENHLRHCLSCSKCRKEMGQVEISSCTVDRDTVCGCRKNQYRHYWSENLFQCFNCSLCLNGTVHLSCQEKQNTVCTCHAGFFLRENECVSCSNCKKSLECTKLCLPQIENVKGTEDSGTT
Assay: yeast display SC50
Reported metric: apparent Kd (screen) (nM)
Quick note: give the figure in nM, leave out the unit.

Check out these entries, answers already filled in.
Binder | Measured
S47R (designed binder) MTLQELLREEALRRAEAEAFRYALELLAEKFPEQKEYLLDLAEEIERQIRSLSGVDVEDVRKFLDKEWAWVKELLAEHPAELAEVEAARAARLAELRAEVEAKVAA | 0.49
E46S (designed binder) MTLQELLREEALRRAEAEAFRYALELLAEKFPEQKEYLLDLAEEISSQIRSLSGVDVEDVRKFLDKEWAWVKELLAEHPAELAEVEAARAARLAELRAEVEAKVAA | 0.49
V85T (designed binder) MTLQELLREEALRRAEAEAFRYALELLAEKFPEQKEYLLDLAEEIESQIRSLSGVDVEDVRKFLDKEWAWVKELLAEHPAELAETEAARAARLAELRAEVEAKVAA | 0.446

Query string: Given W68C (designed binder) MTLQELLREEALRRAEAEAFRYALELLAEKFPEQKEYLLDLAEEIESQIRSLSGVDVEDVRKFLDKECAWVKELLAEHPAELAEVEAARAARLAELRAEVEAKVAA , state its recorded apparent Kd (screen).
Result string: 2.48

Query string: Given V71A (designed binder) MTLQELLREEALRRAEAEAFRYALELLAEKFPEQKEYLLDLAEEIESQIRSLSGVDVEDVRKFLDKEWAWAKELLAEHPAELAEVEAARAARLAELRAEVEAKVAA , state its recorded apparent Kd (screen).
Result string: 0.49

Query string: Given L93Y (designed binder) MTLQELLREEALRRAEAEAFRYALELLAEKFPEQKEYLLDLAEEIESQIRSLSGVDVEDVRKFLDKEWAWVKELLAEHPAELAEVEAARAARYAELRAEVEAKVAA , state its recorded apparent Kd (screen).
Result string: 0.539

Query string: Given E81C (designed binder) MTLQELLREEALRRAEAEAFRYALELLAEKFPEQKEYLLDLAEEIESQIRSLSGVDVEDVRKFLDKEWAWVKELLAEHPACLAEVEAARAARLAELRAEVEAKVAA , state its recorded apparent Kd (screen).
Result string: 0.79

Query string: Given E67I (designed binder) MTLQELLREEALRRAEAEAFRYALELLAEKFPEQKEYLLDLAEEIESQIRSLSGVDVEDVRKFLDKIWAWVKELLAEHPAELAEVEAARAARLAELRAEVEAKVAA , state its recorded apparent Kd (screen).
Result string: 6.43
